meta.source: patent US20070031480A1

System: MDA435/LCC6 wild-type and MDR-1 gene transfected MDA435/LCC6MDR1 breast cancer cells
experimental_details: MTT cytotoxicity assay of free ceramides, 72 hours
Assay type: cell-based, human
condition_label: free ceramide, wild-type and MDR1 MDA435/LCC6 cells, not separated
measured_quantity: IC50

Given item CCCCCCCCCCCCC/C=C/[C@@H](O)[C@H](CO)NC(=O)CCCCCCCCC [C10-ceramide] , the value recorded as its IC50 is ~45 µM
